parameter: melting point

Field: example entries. Status: answers known.
>>> result("Fc1cccc(Cl)c1C1C=C(c2ccc3ccccc3c2)Nc2ncnn21 (centres unmarked) [Example 12]")
"237 °C"
>>> result("Clc1ccc([C@H]2C[C@@H](c3c(Cl)cccc3Cl)n3ncnc3N2)cc1 (relative stereo) [Example 19]")
"246 to 247 °C"
>>> result("Cc1ccc([C@H]2C[C@@H](c3c(F)cccc3Cl)n3ncnc3N2)cc1C (relative stereo) [Example 36]")
"223 °C"
>>> result("COc1ccc(C2=CC(c3c(F)cccc3Cl)n3ncnc3N2)cc1 (centres unmarked) [Example 10]")
"217 to 218 °C"
>>> result("Clc1ccc([C@H]2C[C@@H](c3ccccc3)n3ncnc3N2)cc1 (relative stereo) [Example 24]")
"210 to 212 °C"

Measured melting point, CCc1ccc([C@H]2C[C@@H](c3c(F)cccc3Cl)n3ncnc3N2)cc1 (relative stereo) [Example 29] : 230 to 231 °C

###

A collection of molecules and their measured melting point

>>> result("Fc1cccc(Cl)c1C1C=C(c2cccc(Cl)c2)Nc2ncnn21 (centres unmarked)")
"246 to 248 °C"
>>> result("Fc1cccc(Cl)c1[C@@H]1C[C@H](c2ccccc2)Nc2ncnn21 (relative stereo)")
"270 to 271 °C"
>>> result("Fc1cccc(Cl)c1[C@@H]1C[C@H](c2ccc3ccccc3c2)Nc2ncnn21 (relative stereo)")
"224 to 225 °C"

Measured melting point, CCc1ccc(C2=CC(c3c(F)cccc3Cl)n3ncnc3N2)cc1 (centres unmarked) : 220 to 221 °C

Measured melting point, Fc1ccc([C@@H]2C[C@H](c3ccc(Cl)cc3)Nc3ncnn32)c(Cl)c1 (relative stereo) : 224 to 225 °C

Measured melting point, Fc1cccc(Cl)c1[C@@H]1C[C@H](c2ccc(Br)cc2)Nc2ncnn21 (relative stereo) : 246 to 247 °C

Measured melting point, Fc1ccc([C@H]2C[C@@H](c3c(F)cccc3Cl)n3ncnc3N2)c(F)c1 (relative stereo) : 225 °C

###

A collection of molecules and their measured melting point

Field: example entries. Status: answers known.
>>> result("Fc1ccc(C2=CC(c3c(F)cccc3Cl)n3ncnc3N2)cc1 (stereo not shown) [Example 7]")
"203 to 204 °C"
>>> result("Clc1ccc([C@H]2C[C@@H](c3ccccc3Cl)n3ncnc3N2)cc1 (relative stereo) [Example 22]")
"202 to 204 °C"
>>> result("COc1ccc([C@H]2C[C@@H](c3c(F)cccc3Cl)n3ncnc3N2)cc1 (relative stereo) [Example 30]")
"221 to 222 °C"
>>> result("Fc1cccc(Cl)c1C1C=C(c2ccc(Cl)cc2)Nc2ncnn21 (stereo not shown) [Example 1]")
"213 to 215 °C"
>>> result("Fc1cccc(Cl)c1C1C=C(c2ccc(Cl)cc2Cl)Nc2ncnn21 (stereo not shown) [Example 14]")
"209 to 211 °C"

Measured melting point, Fc1cccc(Cl)c1C1C=C(c2ccc(-c3ccccc3)cc2)Nc2ncnn21 (stereo not shown) [Example 11] : 267 °C

Measured melting point, Fc1cccc(Cl)c1[C@@H]1C[C@H](c2cccc(Cl)c2)Nc2ncnn21 (relative stereo) [Example 26] : 262 to 263 °C

Measured melting point, CC(C)c1ccc([C@@H]2C[C@H](c3ccc(Cl)cc3)Nc3ncnn32)cc1 (relative stereo) [Example 23] : 194 to 195 °C
